Each entry below lists one item and its recorded Ki value.
Target: PKC delta kinase (Homo sapiens)
Sequence (Q05655 whole entry): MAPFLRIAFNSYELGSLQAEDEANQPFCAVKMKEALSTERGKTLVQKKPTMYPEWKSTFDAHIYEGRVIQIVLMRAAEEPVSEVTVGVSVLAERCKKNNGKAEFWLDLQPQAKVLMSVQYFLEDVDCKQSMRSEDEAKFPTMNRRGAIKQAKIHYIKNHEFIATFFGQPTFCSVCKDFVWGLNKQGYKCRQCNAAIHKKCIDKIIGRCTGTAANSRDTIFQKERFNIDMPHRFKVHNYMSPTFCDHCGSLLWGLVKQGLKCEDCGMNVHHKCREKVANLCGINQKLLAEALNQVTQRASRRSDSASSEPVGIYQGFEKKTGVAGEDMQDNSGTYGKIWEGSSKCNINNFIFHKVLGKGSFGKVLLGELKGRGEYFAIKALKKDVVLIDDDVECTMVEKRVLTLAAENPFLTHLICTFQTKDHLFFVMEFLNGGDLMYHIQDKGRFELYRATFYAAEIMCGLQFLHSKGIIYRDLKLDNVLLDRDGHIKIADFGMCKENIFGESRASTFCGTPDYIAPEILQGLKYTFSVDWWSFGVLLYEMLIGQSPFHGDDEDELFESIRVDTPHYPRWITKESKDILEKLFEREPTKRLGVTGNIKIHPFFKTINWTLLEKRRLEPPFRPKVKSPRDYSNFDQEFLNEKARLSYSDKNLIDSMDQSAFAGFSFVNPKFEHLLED
Assay: PKC delta coupled-enzyme (NADH consumption) kinase assay
Details: 46 nM PKC delta, 150 μM ATP, 30° C., initial rate at 340 nm

// worked examples, Ki included
Molecule: CC(C)C(O)C1CN(c2nc(-c3n[nH]c4ncccc34)c(F)cc2Cl)CCN1 (stereo not shown) [Compound 20]
Result: < 50 nM

Molecule: COCC(C)(O)C1CN(c2nc(-c3n[nH]c4ncccc34)c(F)cc2F)CCN1 (stereo not shown)
Result: < 500 nM

Molecule: CC(C)[C@@](C)(O)[C@@H]1CN(c2nc(-c3n[nH]c4ncccc34)c(F)cc2F)CCN1
Result: < 50 nM

Incoming: What value of Ki has been reported for the following molecule? CC(C)C(N)[C@H]1CCN(c2nc(-c3n[nH]c4ncccc34)c(F)cc2F)C1 (stereo partly shown)
Outgoing: < 50 nM
